- System name: CK1δ (Homo sapiens, UniProt P48730)
- Sequence (P48730 whole entry): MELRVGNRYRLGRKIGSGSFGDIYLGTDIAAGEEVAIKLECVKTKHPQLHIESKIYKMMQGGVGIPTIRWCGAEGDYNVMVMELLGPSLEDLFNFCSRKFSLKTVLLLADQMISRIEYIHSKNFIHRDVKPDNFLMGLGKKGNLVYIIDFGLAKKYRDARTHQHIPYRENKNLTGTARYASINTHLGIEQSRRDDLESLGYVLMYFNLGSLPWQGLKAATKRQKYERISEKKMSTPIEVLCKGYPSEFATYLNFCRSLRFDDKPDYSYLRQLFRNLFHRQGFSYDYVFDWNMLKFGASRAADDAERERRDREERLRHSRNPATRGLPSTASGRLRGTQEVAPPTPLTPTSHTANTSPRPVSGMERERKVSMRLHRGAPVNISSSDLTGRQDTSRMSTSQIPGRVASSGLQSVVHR
- Assay comment: CK1δ kinase assay (Caliper LabChip electrophoretic separation of fluoresceinated peptide substrate and product)
- Assay type: biochemical
- Condition parameters: 200 pM CK1δ, 50 μM ATP, 1.5 μM peptide, 22 hours at room temperature; read-out: CK1δ
What pIC50 was measured for each of the following?
Give only the number. pIC50 is defined as minus log10 of concentration in molar units.

May I ask what pIC50 has been recorded for CC(C)(C)NC(=O)N1CCn2nc(-c3ccccc3)c(C(N)=O)c2C1 [Compound 116] ? 7.74

Reported pIC50, compound CC(C)(C)NC(=O)N1CCn2nc(-c3cccc(F)c3)c(C(N)=O)c2C1 [Compound 4] : ____ 7.96

What pIC50 value was documented for this compound, CC(C)(C)NC(=O)N1CCn2nc(-c3ccc(F)c(F)c3)c(C(N)=O)c2C1 [Compound 106] ? 8.06

Which pIC50 value belongs to CC1CC(NC(=O)N2CCn3nc(-c4ccc(Cl)c(Cl)c4)c(C(N)=O)c3C2)C1 (single isomer, unassigned) [Compound 248] ? 8.82

Endpoint output: pIC50 of CC(C)(C)NC(=O)N1CCn2nc(-c3ccc(F)cc3)c(C(N)=O)c2C1 [Compound 1] . Value? 7.56

Entry under review: CC1(NC(=O)N2CCn3nc(-c4ccc(F)c(Cl)c4)c(C(N)=O)c3C2)CC(C(F)F)C1 (single isomer, unassigned) [Compound 258] . Reported pIC50? 9.30

Please look up its pIC50: CC(C)(C)NC(=O)N1CCn2nc(-c3ccncc3)c(C(N)=O)c2C1 [Compound 126] 6.35

Form field: reported pIC50 of CC(C)(C)NC(=O)N1CCn2nc(-c3ccccc3F)c(C(N)=O)c2C1 [Compound 107] 6.98

====

- System name: CK1δ (Homo sapiens, UniProt P48730)
- Assay comment: CK1δ kinase assay (Caliper LabChip electrophoretic separation of fluoresceinated peptide substrate and product)
- Assay type: biochemical
- Condition parameters: 200 pM CK1δ, 50 μM ATP, 1.5 μM peptide, 22 hours at room temperature; read-out: CK1δ IC50 range
- Description: CK1ε and CK1δ Kinase Assays The kinase assay was performed in V-bottom 384-well plates. […] The reaction was incubated at room temperature for 22 hours and terminated by adding 45 μl of 35 mM EDTA to each sample. The reaction mixture was analyzed on the Caliper LABCHIP®3000 (Caliper, Hopkinton, Mass.) by electrophoretic separation of the unphosphorylated substrate and phosphorylated product. […] Compounds were dissolved at 10 mM in dimethylsulfoxide (DMSO) and evaluated at eleven concentrations. […]
Test readout: IC50

For the compound shown here, CC(C)(C)NC(=O)N1Cc2c(C(N)=O)c(-c3ccc(F)c(Cl)c3)nn2C(CN2CCOCC2)C1 (centres unmarked) [Compound A15] , give the reported IC50. 0.01 to 10 nM

Return reported IC50; argument: CC1(NC(=O)N2CCn3nc(-c4ccc(Cl)c(Cl)c4)c(C(N)=O)c3C2)CC2(C1)CC2(F)F (single isomer, unassigned) [Compound 329] 0.01 to 10 nM

Request the reported IC50 associated with NC(=O)c1c(-c2ccc(F)c(Cl)c2)nn2c1CN(C(=O)NC13CCC(C(F)F)(CC1)C3)CC2 [Compound A139] 0.01 to 10 nM

Could you tell me which IC50 is on file for NC(=O)c1c(-c2ccc(Cl)c(Cl)c2)nn2c1CN(C(=O)N[C@H]1C[C@@H](c3ccc(F)cc3)C1)CC2 [Compound 278] ? 0.01 to 10 nM

Would you kindly share the measured IC50 for NC(=O)c1c(-c2ccc(F)c(Cl)c2)nn2c1CN(C(=O)NC1CN(CC(F)(F)F)C1)CC2 [Compound 339] ? 0.01 to 10 nM

Any idea what IC50 was measured for COCCC1CN(C(=O)NC(C)(C)C)Cc2c(C(N)=O)c(-c3ccc(F)c(Cl)c3)nn21 (single isomer, unassigned) [Compound A101] ? 0.01 to 10 nM

Any idea what its IC50 is? The compound is NC(=O)c1c(-c2ccc(F)c(Cl)c2)nn2c1CN(C(=O)NCC1CCC(F)(F)CC1)CC2 [Compound 194] 0.01 to 10 nM

// IC50 lookup, key: N#Cc1ccc([C@H]2C[C@@H](NC(=O)N3CCn4nc(-c5cccc(Cl)c5)c(C(N)=O)c4C3)C2)cc1 [Compound 284] 0.01 to 10 nM

Please give the measured IC50 for this compound: CC(C)(C)NC(=O)N1CCn2nc(-c3ccncc3)c(C(N)=O)c2C1 [Compound 126] 100 to 2000 nM

Which measured IC50 value corresponds to NC(=O)c1c(-c2cccc(F)c2)nn2c1CN(C(=O)Nc1ccc(Cl)cc1C(F)(F)F)CC2 [Compound 57] ? 10 to 100 nM

For the compound C[C@H]1CN(C(=O)NC2CC(F)(F)C2)Cc2c(C(N)=O)c(-c3ccc(F)c(Cl)c3)nn21 [Compound A115] , what IC50 is on record? 0.01 to 10 nM

Using the record for NC(=O)c1c(-c2cccc(Cl)c2)nn2c1CN(C(=O)NCC1CC(F)(F)C1)CC2 [Compound 179] , report its IC50. 0.01 to 10 nM

Name the recorded IC50 for N#Cc1ccc(O[C@H]2C[C@H](NC(=O)N3CCn4nc(-c5ccc(Cl)c(Cl)c5)c(C(N)=O)c4C3)C2)cc1 [Compound 268] . 0.01 to 10 nM

Please give the measured IC50 for this compound: CC(C)(C)NC(=O)N1Cc2c(C(N)=O)c(-c3cccc(Cl)c3)nn2C2(CC2)C1 [Compound A129] 0.01 to 10 nM

I'd like to know its IC50. The compound in question is CC(C)(C)NC(=O)N1Cc2c(C(N)=O)c(-c3ccc(F)c(Cl)c3)nn2C(C(=O)NC2CC2)C1 (centres unmarked) [Compound A24] 100 to 2000 nM

// lookup IC50 for CC(C)(C)NC(=O)N1Cc2c(C(N)=O)c(-c3cccc(F)c3)nn2C2(CC2)C1 [Compound A131] 10 to 100 nM

// IC50 lookup, key: CC(C)(NC(=O)N1CCn2nc(-c3ccc(F)c(Cl)c3)c(C(N)=O)c2C1)C1CC(F)(F)C1 [Compound 226] 0.01 to 10 nM

Which measured IC50 value corresponds to CC12CC3(C)CC(C)(C1)CC(NC(=O)N1CCn4nc(-c5cccc(Cl)c5)c(C(N)=O)c4C1)(C2)C3 [Compound A85] ? 0.01 to 10 nM

What value of IC50 has been recorded for this entry: NC(=O)c1c(-c2ccc(Cl)c(Cl)c2)nn2c1CN(C(=O)NC1CC(C(F)F)C1)CC2 (centres unmarked) [Compound 255] 0.01 to 10 nM

Given the compound NC(=O)c1c(-c2cccc(F)c2)nn2c1CN(C(=O)Nc1cc(F)cc(F)c1F)CC2 [Compound 27] , what is its reported IC50? 10 to 100 nM

Returns the measured IC50 for the input compound. Input: COc1ccc([C@H]2C[C@@H](NC(=O)N3CCn4nc(-c5cccc(Cl)c5)c(C(N)=O)c4C3)C2)cc1 [Compound 281] 0.01 to 10 nM

What value of IC50 has been reported for the following compound? NC(=O)c1c(-c2cccc(Cl)c2)nn2c1CN(C(=O)NC1CC3(C1)CC3(F)F)CC2 (single isomer, unassigned) [Compound 322] 0.01 to 10 nM

I would be grateful if you could share the reported IC50 for CC(C)(CO)NC(=O)N1CCn2nc(-c3cccc(Cl)c3)c(C(N)=O)c2C1 [Compound A46] . 0.01 to 10 nM

For CC(C)(C)NC(=O)N1CCn2nc(-c3ccccc3)c(C(N)=O)c2C1 [Compound 116] , what is its reported IC50? 10 to 100 nM

For CC(C)(NC(=O)N1CCn2nc(-c3cccc(Cl)c3)c(C(N)=O)c2C1)C1CCC(F)(F)CC1 [Compound 233] , what is its reported IC50? 0.01 to 10 nM

Requested read-out: IC50. Entry: NC(=O)c1c(-c2ccc(F)c(Cl)c2)nn2c1CN(C(=O)N[C@@H]1CC[C@H]1COC(F)F)CC2 [Compound 241] 0.01 to 10 nM

Query: IC50; subject: NC(=O)c1c(-c2cccc(F)c2)nn2c1CN(C(=O)Nc1ccncc1)CC2 [Compound 92] 100 to 2000 nM

Item under review: CC1(NC(=O)N2CCn3nc(-c4cccc(F)c4)c(C(N)=O)c3C2)CC1 [Compound 11] . Reported IC50? 10 to 100 nM

For the compound shown here, CC(C)(O)[C@@H]1CN(C(=O)NC2CC(F)(F)C2)Cc2c(C(N)=O)c(-c3ccc(F)c(Cl)c3)nn21 [Compound A19] , give the reported IC50. 10 to 100 nM

====

Assignment: determine reported IC50 for the given compounds.
- System name: UniProt P49674
- Sequence (P49674 whole entry): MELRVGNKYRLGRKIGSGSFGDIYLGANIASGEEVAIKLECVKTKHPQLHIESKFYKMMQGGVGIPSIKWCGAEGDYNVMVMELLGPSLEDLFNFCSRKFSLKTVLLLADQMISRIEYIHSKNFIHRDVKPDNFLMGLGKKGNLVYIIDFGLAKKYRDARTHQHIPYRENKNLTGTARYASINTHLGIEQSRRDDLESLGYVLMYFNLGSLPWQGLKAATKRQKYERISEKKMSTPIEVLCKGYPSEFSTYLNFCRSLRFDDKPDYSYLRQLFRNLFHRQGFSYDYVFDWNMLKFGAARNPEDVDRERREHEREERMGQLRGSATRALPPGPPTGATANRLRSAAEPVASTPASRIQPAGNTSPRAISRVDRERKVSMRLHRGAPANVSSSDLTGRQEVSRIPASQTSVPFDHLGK
- Assay comment: CK1ε kinase assay (Caliper LabChip electrophoretic separation of fluoresceinated peptide substrate and product)
- Type: biochemical
- Condition parameters: 200 pM CK1ε, 50 μM ATP, 1.5 μM peptide, 22 hours at room temperature; read-out: CK1ε IC50 range

For CC1(NC(=O)N2CCn3nc(-c4ccc(F)c(Cl)c4)c(C(N)=O)c3C2)CC(C(F)F)C1 (single isomer, unassigned) [Compound 259] , what is its reported IC50? 0.01 to 10 nM

Using the record for `NC(=O)c1c(-c2ccc(F)c(Cl)c2)nn2c1CN(C(=O)N[C@H]1C[C@H](F)C1)CC2` , report its IC50. 0.01 to 10 nM

Find the recorded IC50 belonging to CC(C)(C)C1CN(C(=O)NC2CC(F)(F)C2)Cc2c(C(N)=O)c(-c3ccc(F)c(Cl)c3)nn21 (single isomer, unassigned) [Compound A122] and report it. 0.01 to 10 nM

I would be grateful if you could share the reported IC50 for CC1CC(NC(=O)N2CCn3nc(-c4ccc(Cl)c(Cl)c4)c(C(N)=O)c3C2)C1 (single isomer, unassigned) [Compound 249] . 0.01 to 10 nM

If you can, please state the reported IC50 value of CCC1CN(C(=O)NC(C)(C)C)Cc2c(C(N)=O)c(-c3ccc(F)c(Cl)c3)nn21 (single isomer, unassigned) . 0.01 to 10 nM

Suppose we examine the compound `CNC(=O)C(C)(C)NC(=O)N1CCn2nc(-c3ccc(F)c(Cl)c3)c(C(N)=O)c2C1` ; what IC50 value has been reported? 10 to 100 nM

// lookup IC50 for CC1(NC(=O)N2CCn3nc(-c4cccc(Cl)c4)c(C(N)=O)c3C2)CC2(C1)CC2(F)F (single isomer, unassigned) [Compound 330] 0.01 to 10 nM

Given the compound `CS(=O)(=O)[C@H]1C[C@@H](NC(=O)N2CCn3nc(-c4cccc(Cl)c4)c(C(N)=O)c3C2)C1` , what is its reported IC50? 0.01 to 10 nM

What value of IC50 has been reported for the following compound? NC(=O)c1c(-c2ccc(F)c(Cl)c2)nn2c1CN(C(=O)NC1CC3(C1)CC3(F)F)CC2 (single isomer, unassigned) [Compound 321] 0.01 to 10 nM

Returns the measured IC50 for the input compound. Input: `N#CC12CCC(NC(=O)N3CCn4nc(-c5ccc(F)c(Cl)c5)c(C(N)=O)c4C3)(CC1)C2` 0.01 to 10 nM

Which IC50 is listed for `CC1(C)CC(NC(=O)N2CCn3nc(-c4cccc(Cl)c4)c(C(N)=O)c3C2)C1` ? 0.01 to 10 nM

# input compound: `COc1ccc(CCNC(=O)N2CCn3nc(-c4cccc(F)c4)c(C(N)=O)c3C2)cc1` ; wanted: its IC50 100 to 2000 nM

# get_value(readout='IC50', item= `CC(C)(NC(=O)N1CCn2nc(-c3cccc(Cl)c3)c(C(N)=O)c2C1)C1CC(F)(F)C1` ) 0.01 to 10 nM

# query: IC50 of entry `NC(=O)c1c(-c2cccc(F)c2)nn2c1CN(C(=O)NC(CF)(CF)CF)CC2` 10 to 100 nM
